Assay: supercomplex reporter luminescence per Hoechst cell count – Hoechst nuclei count (AID 1645838);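 also: control cybrid cells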
Conditions: Cells, luminescence/Hoechst cell count ratio, measured here: cell number, Hoechst nuclei count, library stock concentration (final well concentration not given) 10 mM
Screen size: about 2,000 compounds; about 100 (5%) were called active. Many of the other results were omitted from the sample, so actives are more common in it than they were.
Class assignment keyed on cell count, ranges b0 (below 3000), b1 (3000 to below 5000), b2 (5000 or more)

{"columns": ["Molecule", "Class label"],
 "data": [
  ["COc1cc(N2CCOCC2)ccc1Nc1ncc(F)c(Nc2ccccc2NS(C)(=O)=O)n1", "b0"],
  ["CC(C)c1ccc(-c2cc(=O)c3ccccc3o2)cc1", "b2"],
  ["CC(C)(C)n1nc(-c2ccc(Cl)cc2)c2c(N)ncnc21", "b1"],
  ["CCC(CO)Nc1nc(NCc2ccccc2)c2ncn(C(C)C)c2n1 (stereo unspecified)", "b1"],
  ["O=C(Nc1cccc(Br)c1)c1cccc(S(=O)(=O)N2CCCCCC2)c1", "b2"],
  ["CCN(C)C(=O)Oc1cccc(C(C)N(C)C)c1 (stereo unspecified)", "b2"]
]}

Prompt: Which class does CC1=C(C(=O)Nc2ccccc2C)C(c2cccc([N+](=O)[O-])c2)C2=C(CCCC2=O)N1 (stereo unspecified) fall in?
Response: b1

Prompt: Which class does O=C(O)c1cc(C(F)(F)F)ccc1N1CCC(OCc2ccccn2)C1 (stereo unspecified) fall in?
Response: b2

Prompt: Which class does `COc1cc2c(NC3CCN(C(C)C)CC3)nc(C3CCCCC3)nc2cc1OCCCN1CCCC1` fall in?
Response: b0

Prompt: Which class does CCOc1ccc(-n2c(C(C)N(Cc3cccnc3)C(=O)Cc3ccc(F)c(C(F)(F)F)c3)nc3ncccc3c2=O)cc1 (stereo unspecified) fall in?
Response: b1

Prompt: Which class does `COc1cccc(-c2cn(-c3ccc(CCN4CCC(O)CC4)cc3)c3ncnc(N)c23)c1` fall in?
Response: b0

---

What z-score was measured for each of the following?
Assay: supercomplex reporter luminescence per Hoechst cell count – Hoechst nuclei count (AID 1645838);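 also: control cybrid cells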;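 as to z-score: higher means more mitochondrial supercomplex formation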
Conditions: Cells, luminescence/Hoechst cell count ratio, library stock concentration (final well concentration not given) 80 uM, stronger effect = higher value
Among all 2,000 compounds or so, about 100 (5%) were called active. The sample as a whole holds a higher share of actives than the screen did.
One number for each entry.

{"columns": ["Compound", "z-score"],
 "data": [
  ["C#Cc1cccc(Nc2ncnc3cc4c(cc23)OCCOCCOCCO4)c1", -0.401],
  ["COc1ccc(C(=O)O)cc1", -0.451],
  ["COc1cc2ncnc(Nc3cc(Br)c(O)c(Br)c3)c2cc1OC", -0.757]
]}

Dear colleague, could you send me z-score for each of the items below? Thanks.
1. COc1cc(C)c(Sc2cnc(NC(=O)c3ccc(CNC(C)C(C)C)cc3)s2)cc1C(=O)N1CCN(C(C)=O)CC1 (stereo not given)
2. CN(c1ccccc1CNc1nc(Nc2ccc3c(c2)CC(=O)N3)ncc1C(F)(F)F)S(C)(=O)=O
3. CNC(=O)Nc1ccc(-c2nc(N3CC4CCC(C3)O4)c3cnn(C4CCC5(CC4)OCCO5)c3n2)cc1
4. Nc1ncnc2c1c(-c1ccc(Oc3ccccc3)cc1)cn2C1CCCC1
5. COc1ccc2c(c1)CN(C)CCS2
6. CN(C)C1CCN(C(=O)c2ccc(NC(=O)Nc3ccc(-c4nc(N5CCOCC5)nc(N5CCOCC5)n4)cc3)cc2)CC1
7. Cc1nc(Nc2ncc(C(=O)Nc3c(C)cccc3Cl)s2)cc(N2CCN(CCO)CC2)n1

Response:
[-0.488, 0.0927, 1.01, 0.00446, -0.906, -0.0957, 3.96]

---

Test: supercomplex reporter luminescence per Hoechst cell count – Hoechst nuclei count (AID 1645838);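 also: control cybrid cells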
Conditions: Cells, luminescence/Hoechst cell count ratio, measured here: cell number, Hoechst nuclei count, library stock concentration (final well concentration not given) 80 uM
Among all 2,000 compounds or so, about 100 (5%) were called active. Shown is part of a subset that was picked to be rich in actives.
Tick yes (1) if cell count is 5000 or greater. Tick no (0) if cell count is less than 5000.

For orientation, consider the following solved cases.
{"columns": ["Molecule", "Class label"],
 "data": [
  ["CC(O)C(O)C1CNc2nc(N)[nH]c(=O)c2N1 (stereo not given)", "yes (1)"],
  ["COc1ccc2c(c1)CN(C)CCS2", "yes (1)"],
  ["CCCCN(Cc1ccc(C(=O)NO)cc1)C(=O)Nc1ccccc1", "yes (1)"],
  ["Cc1cc(Nc2cc(N3CCN(C)CC3)nc(Sc3ccc(NC(=O)C4CC4)cc3)n2)n[nH]1", "no (0)"]
]}

Prompt: Say whether COc1cc(C)c(Sc2cnc(NC(=O)c3ccc(CNC(C)C(C)C)cc3)s2)cc1C(=O)N1CCN(C(C)=O)CC1 (stereo not given) shows cell count of 5000 or more.
Response: no (0)

---

Assay: supercomplex reporter luminescence per Hoechst cell count – Hoechst nuclei count (AID 1645838);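 also: control cybrid cells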;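 as to z-score: higher means more mitochondrial supercomplex formation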
Conditions: Cells, luminescence/Hoechst cell count ratio, stronger effect = higher value
Among all 2,000 compounds or so, about 100 (5%) were called active. The sample as a whole holds a higher share of actives than the screen did.
What z-score was measured for each of the following?

{"columns": ["Compound", "z-score"],
 "data": [
  ["CCCCC[C@@H](O)[C@H]1C(=O)O[C@H](C)[C@@H](O)/C=C/C=C/C=C/C=C/C=C(\\C)[C@@H](O)C[C@H](O)C[C@H](O)C[C@H](O)C[C@H](O)C[C@H](O)C[C@@H]1O", "0.375 (inactive)"],
  ["CCCCC[C@H](O)/C=C/[C@@H]1c2cc(CCCCC(=O)O)n(-c3ccccc3)c2C[C@H]1O", "-1.31 (inactive)"],
  ["O=C(O)CCC/C=C\\C[C@@H]1[C@@H](/C=C/C(=O)CCc2ccccc2)[C@H](O)C[C@@H]1O", "0.328 (inactive)"],
  ["CCCCCCCC/C=C\\CCCCCCCC(=O)OCC(O)COP(=O)(O)O (stereo not drawn)", "-0.58 (inactive)"]
]}

Dear colleague, could you send me z-score for each of the items below? Thanks.
1. CCCCC/C=C\C/C=C\C/C=C\C/C=C\CCCC(=O)NC[C@]1(C)CCC[C@]2(C)c3ccc(C(C)C)cc3CC[C@@H]12
2. O=C(O)CCC/C=C\C[C@@H]1[C@@H](/C=C/[C@@H](O)COc2cccc(C(F)(F)F)c2)[C@H](O)C[C@@H]1O
3. NC(=O)c1ccc(-c2nc(-c3ccc4c(c3)OCCO4)c(-c3ccccn3)[nH]2)cc1
4. COC(=O)CCCCCC[C@@H]1[C@@H](CCC(O)C#Cc2ccccc2F)[C@H](O)C[C@@H]1O (stereo partly drawn)

Response:
1: -0.12 (inactive); 2: -0.654 (inactive); 3: 0.107 (inactive); 4: -0.523 (inactive)

---

Test: supercomplex reporter luminescence per Hoechst cell count – Hoechst nuclei count (AID 1645838);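 also: control cybrid cells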;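 as to z-score: higher means more mitochondrial supercomplex formation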
Conditions: Cells, luminescence/Hoechst cell count ratio, stronger effect = higher value
Screen size: about 2,000 compounds; about 100 (5%) were called active. For the sample, actives were picked, then their nearest neighbours and some compounds at random.
What z-score was measured for each of the following?

Solved cases (2 shown):
{"columns": ["Molecule", "Readout label", "Reported result"],
 "data": [
  ["CCCCCCCCCCCCCCC(F)C(=O)O (stereo not given)", "z-score", "-0.112 (inactive)"],
  ["CCCCCCCCCCCCC/C=C/[C@@H](O)[C@H](CO)NC(=O)CCCCC", "z-score", "-0.258 (inactive)"]
]}

Dear colleague, could you send me z-score for each of the items below? Thanks.
1. CCCCCCCCCCCCCCCCSC[C@H](COP(=O)([O-])OCC[N+](C)(C)C)NC(=O)CCCCCCCCCCCCCCC
2. CC(C)CCOc1ccc(NC(=S)Nc2ccc(OCCC(C)C)cc2)cc1
3. CS(=O)(=O)Nc1ccc([N+](=O)[O-])cc1Oc1ccccc1
4. CCCCCCCCCCCCCCCC(=O)OC[C@@H](O)COP(=O)(O)O

Response:
1: -0.387 (inactive); 2: -0.0536 (inactive); 3: 1.64 (inactive); 4: 0.759 (inactive)

Dear colleague, could you send me z-score for each of the items below? Thanks.
1. CCCCCCCCCCCCCCCCOC[C@H](COP(=O)([O-])OCC[N+](C)(C)C)OC(=O)NC
2. CCCCCCCCCC(=O)N[C@@H](CN1CCOCC1)[C@@H](O)c1ccccc1
3. Nc1ccccc1NC(=O)CCCCCCC(=O)Nc1ccccc1
4. CCCCCC/C=C\CCCC(=O)CC(=O)N[C@H]1CCOC1=O

Response:
-1.68 (inactive)
0.0636 (inactive)
0.265 (inactive)
0.196 (inactive)

Sourced from PubChem BioAssay AID1645838
